src = ChEMBL document CHEMBL1201862

Tested on: 786-0
Assay: NCI tumour cell line growth inhibition, 48 h
The source made the active and inactive calls. Rule as the data show it: active = GI50 up to about 1.1 µM and inactive = higher.
Valid outcomes are listed here; reply with one: T = active, F = inactive

For orientation, consider the following solved cases.
O=C1N[C@H]2[C@H](O)[C@H](O)[C@@H](O)[C@H](O)[C@@H]2c2cc3c(c(O)c21)OCO3    F
O=C(O)CSCC(=O)O    F
O=C(c1ccc(Cl)cc1)N(C(=S)OCCOc1ccccc1)c1ccccc1    F

INPUT: Would you mind telling me which call this test gave CCN1C2=NC(=O)N(C)C(=O)C2(Cl)C(C(SC)S(=O)(=O)c2ccc(C)cc2)c2ccccc21 (configuration not stated) ?
OUTPUT: F

INPUT: What outcome does the record of this test show for FC(F)(F)c1cc(N(C2c3ccccc3C=Cc3ccccc32)P(Cl)Cl)cc(C(F)(F)F)c1 ?
OUTPUT: F

INPUT: What did this assay record as the result for CN1C(=O)C(C(=O)Nc2ccccn2)C2C[C@@]1(C)Oc1ccccc12 (some centres not stated) ?
OUTPUT: F

INPUT: Field: outcome | Entry: CC(=N\c1ccncc1)/C(C)=N/c1ccncc1
OUTPUT: F

====

Tested on: SNB-75
Test: NCI tumour cell line growth inhibition, 48 h
Calls of active or inactive are those of the source. Cut-off read from the data, not from the text of the source: active = GI50 up to about 1.1 µM and inactive = higher.
Entries and their GI50 values follow.

Please review the following examples before continuing.
NNC(=O)CC(=O)Nc1ccccc1Cl    > 100 µM (inactive)
CC(C)N1CC2CC(CN(C(=O)c3ccc(Cl)cc3)C2)C1    > 100 µM (inactive)
CCCCCCCC(=O)OCC1OC(OC)C(NC(=O)N(CCCl)N=O)C(O)C1O (stereo not given)    4.72 µM (inactive)
C=C/C=C(\NC(=O)C(Cl)(Cl)Cl)[Si](C)(C)C    > 100 µM (inactive)

# GI50 of NC(Cc1cc(Br)c(O)c(Br)c1)C(=O)O (stereo not given) = > 100 µM (inactive)

====

GI50 reference
System: SK-MEL-5
Assay: NCI tumour cell line growth inhibition, 48 h
Activity calls are given as the source filed them. Rule as the data show it: active = GI50 up to about 1.1 µM and inactive = higher.

Below, 4 compounds whose answers are already recorded.
O=c1[nH]c2cc([N+](=O)[O-])c(Nc3c4ccccc4nc4ccccc34)c([N+](=O)[O-])c2[nH]1    2.45 µM (inactive)
CC/C=C\C/C=C\C/C=C\CCCCCCCC(=O)OC [METHYL LINOLENATE]    > 100 µM (inactive)
c1ccc(C/C(=N\Nc2nc3ccccc3[nH]2)c2ccccn2)cc1    0.0408 µM (active)
NC(=O)/N=C1/CCC2C3CCCC2C13    > 100 µM (inactive)

The compound listed as Cc1cc(C)c(-n2c(-c3ccccc3)cs/c2=N\N=C2C=C(C(C)(C)C)C(=O)C(C(C)(C)C)=C2)c(C)c1 has a reported GI50 of 94 µM (inactive)

The reported GI50 of the compound Cc1c(C(=O)c2ccccc2)[n+]([O-])c2cc(Cl)c(Cl)cc2[n+]1[O-] was 15.2 µM (inactive)

So, CC(=O)Nc1ccc2c(C(=O)O)c(C)c(O)nc2n1 ? Its GI50 was > 100 µM (inactive)

For record NC(Cc1cc(Br)c(O)c(Br)c1)C(=O)O (stereo not drawn) the listed GI50 is > 100 µM (inactive)

Just so you know, measured GI50 for COc1ccc(-c2coc3cc(O)ccc3c2=O)cc1 came out at > 100 µM (inactive)

====

Tested on: OVCAR-8
Assay: NCI tumour cell line growth inhibition, 48 h
The source made the active and inactive calls. Rule as the data show it: active = GI50 up to about 1.1 µM and inactive = higher.
Reported GI50 values for the following molecules.

c1ccc2c3c([nH]c2c1)C1C2CCCCN2C(c2ccncc2)N1CC3 (stereo unspecified)    38.1 µM (inactive)

Per the records, this molecule ( COC(=O)c1cc2c(=O)n(C)c3ccccc3n2c1C(=O)OC ) has GI50 equal to 35.8 µM (inactive)

// N#Cc1c(-c2ccccc2)c(-c2ccccc2)cc2c(=O)c3ccc(Cl)cc3[nH]c12 : GI50 value = > 100 µM (inactive)

// GI50 value for CCCCCCCCC/C=C1\CCC(CN2CCOCC2)C1=O (stereo unspecified) : 1.82 µM (inactive)

The molecule C=CCC12CCC(=O)[C@@]1(C)CC=C(O)C2=O (stereo partly specified) showed GI50 equal to > 100 µM (inactive)

Data point: Cc1ccc([C@H]2CC(=O)C[C@H](c3ccc(C)cc3)C23C(=O)c2ccccc2C3=O)cc1 ; GI50 = 31 µM (inactive)

In plain terms, Oc1ccc2c(c1)OCC1(O)Cc3cc(O)c(O)cc3C21 (stereo unspecified) has a documented GI50 of 21.9 µM (inactive)

Entry COc1ccccc1N1C(=O)/C(=C\c2cc(OC)c(OC)c(OC)c2)SC1c1ccccc1 (stereo unspecified) — recorded GI50 = 42 µM (inactive)

GI50 measured on CC[C@@H](/C=C\CCC(=O)C[C@H](O)CCC=C(C)C)O[Si](C(C)C)(C(C)C)C(C)C = > 100 µM (inactive)

So for NC(=O)NC(=O)c1cccc(C(=O)NC(N)=O)n1 , the logged GI50 turned out to be > 100 µM (inactive)

Looking up CC1=NN(c2ccccc2)C(=O)C1/N=N/c1ccc(Br)cc1C (stereo unspecified) , I see its GI50 listed as 95.9 µM (inactive)

====

System: A549
Test: NCI tumour cell line growth inhibition, 48 h
Active and inactive are the calls of the source. No stated cut-off is given here; in the data, active = GI50 up to about 1.1 µM and inactive = higher.
Measured Parameter: GI50

For orientation, consider the following solved cases.
CC[C@]1(O)C(=O)OCc2c1cc1n(c2=O)Cc2cc3c(N)cccc3nc2-1    > 100 µM (inactive)
CCOC(=O)/C=C/CC(C)(C)CCOC(C)=O    > 10 µM (inactive)
CCOc1ccc2c(C)cc(=O)oc2c1    > 100 µM (inactive)

Looking up CCCCCCN1CCc2c(C)c(C#N)c3nc4ccccc4n3c21 , I found its GI50 recorded as 50.2 µM (inactive)

// field: GI50; key: CC(C)c1ccc(O)c(Cc2cc(C(C)C)cc(Cc3cc(C(C)C)ccc3O)c2O)c1 ; value = 1.9 µM (inactive)

Looking up CC(C)C(OC(=O)c1ccc(NCC2=CC(=O)C=CC2=O)cc1)C(C)C , I see its GI50 listed as 25.2 µM (inactive)

====

Some compounds, each annotated with its measured GI50.
System: Malme-3M
Experiment: NCI tumour cell line growth inhibition, 48 h
Calls of active or inactive are those of the source. No stated cut-off is given here; in the data, active = GI50 up to about 1.1 µM and inactive = higher.

Cn1c2ccccc2c2c(-c3ccccc3)[n+]3ccccc3nc21    24.3 µM (inactive)

Given item Brc1cccc(C2ON=C(c3ccccc3)N2C23CC4CC(CC(C4)C2)C3)c1 (stereo unspecified) , the value recorded as its GI50 is > 10 µM (inactive)

Please fill in: GI50 reported for O=[N+]([O-])c1ccc(Cl)c(C2CC(c3cccc4ccccc34)=Nc3ccccc3S2)c1 (stereo unspecified) = > 54.8 µM (inactive)

// GI50 lookup, compound = S=C1CCSc2c(ccc3ccccc23)N1 , result: > 100 µM (inactive)

For this compound ( CC(C)NC(=O)OCc1c(COC(=O)NC(C)C)c(-c2ccc[n+](COC(=O)C3CCCCC3)c2)n2c1CCC2 ), measured GI50 is 62.5 µM (inactive)

Lab note: measured GI50 of CCNc1c(C(=O)N(CC)CC)c(=O)[nH]c2ncccc12 was > 100 µM (inactive)

====

Recorded GI50 values for a group of molecules are listed next.
Test system: BT-549
Assay: NCI tumour cell line growth inhibition, 48 h
Calls of active or inactive are those of the source. No stated cut-off is given here; in the data, active = GI50 up to about 1.1 µM and inactive = higher.

Completed entries (count: 5):
CC(C)C1=CC23CCC4C(C)(C(=O)O)CCCC4(C)C2CC1C(C(=O)O)C3C(=O)O (stereo unspecified)    > 100 µM (inactive)
C=CCN1C(=O)CNC1=S    > 100 µM (inactive)
O=c1[nH]nc(Cc2ccc([N+](=O)[O-])cc2)n1CCO    > 100 µM (inactive)
O=C(c1ccc(Cl)cc1)N(C(=S)OCCOc1ccccc1)c1ccccc1    20.2 µM (inactive)
CN(c1ccccc1Cl)S(=O)(=O)c1ccccc1    56.2 µM (inactive)

Okay, next one:
Entry O=[As](O)(O)c1ccc(/N=N/c2ccc(O)cc2)cc1 ; GI50 = > 100 µM (inactive)

====

System: MDA-N
Experiment: NCI tumour cell line growth inhibition, 48 h
The source made the active and inactive calls. No stated cut-off is given here; in the data, active = GI50 up to about 1.1 µM and inactive = higher.
Measured Parameter: GI50

O=c1c2ncn(COCCCl)c2n(-c2ccccc2)c(=S)n1-c1ccccc1    > 100 µM (inactive)
COC(=O)[C@@H]1C=C[C@H](OC2OC(COC(C)=O)C(OC(C)=O)C(OC(C)=O)C2OC(C)=O)n2c(=O)n(-c3ccccc3)c(=O)n21 (some centres undefined)    2.57 µM (inactive)
COC(=O)C1(C(=O)OC)CC2=C(S(=O)(=O)c3ccccc3)C[C@H](S(=O)(=O)c3ccccc3)[C@H]2C1    39.4 µM (inactive)
COc1cc(C2C(Cl)C(=O)N2c2ccc(Br)cc2)cc(I)c1O (centres undefined)    36.6 µM (inactive)
O=C1CCC2(CCO1)OCCO2    > 100 µM (inactive)

Would you kindly look at the next entry?
GI50 for Clc1ccc(/C(=C\c2ccccc2)Cn2ccnc2)cc1 is 14.9 µM (inactive)
